target.entity: PCSK9 (Homo sapiens, UniProt Q8NBP7, G670E/V474I)
Sequence (Q8NBP7 with tags, fused parts or gaps V474I/G670E): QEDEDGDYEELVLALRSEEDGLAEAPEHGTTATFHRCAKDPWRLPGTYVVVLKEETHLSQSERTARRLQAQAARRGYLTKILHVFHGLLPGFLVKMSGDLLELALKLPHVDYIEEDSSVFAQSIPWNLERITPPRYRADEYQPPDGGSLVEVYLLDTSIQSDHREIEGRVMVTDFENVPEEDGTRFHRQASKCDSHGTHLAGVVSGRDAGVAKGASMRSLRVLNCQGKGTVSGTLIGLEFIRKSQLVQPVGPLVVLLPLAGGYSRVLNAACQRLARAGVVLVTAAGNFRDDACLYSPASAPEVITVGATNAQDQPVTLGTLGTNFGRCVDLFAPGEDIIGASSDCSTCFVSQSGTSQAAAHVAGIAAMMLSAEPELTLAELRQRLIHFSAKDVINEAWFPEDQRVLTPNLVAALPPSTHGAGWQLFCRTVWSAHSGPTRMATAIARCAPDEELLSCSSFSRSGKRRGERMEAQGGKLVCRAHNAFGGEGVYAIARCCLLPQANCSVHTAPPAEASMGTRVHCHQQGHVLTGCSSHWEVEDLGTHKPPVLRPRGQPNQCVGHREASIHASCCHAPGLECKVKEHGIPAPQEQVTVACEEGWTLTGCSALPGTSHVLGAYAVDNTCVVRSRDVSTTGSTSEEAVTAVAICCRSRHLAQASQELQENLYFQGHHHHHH
experiment.notes: biochemical
# pIC50 annotations
When answering, recall that pIC50 equals minus log10 of the concentration in mol/L, and write that number alone.

Known results for compounds:
>  <compound>
Cn1cccc(-c2cnc(N[C@H]3CC[C@H](Nc4ncc(C5CC5)nn4)C3)nc2)c1=O

>  <target.entity>
PCSK9 (Homo sapiens, UniProt Q8NBP7, G670E/V474I)

>  <endpoint>
pIC50

>  <value>
7.77

$$$$
>  <compound>
Cc1cnc(N[C@H]2CC[C@H](Nc3ccc(-n4cccc(F)c4=O)cn3)C2)nn1

>  <target.entity>
PCSK9 (Homo sapiens, UniProt Q8NBP7, G670E/V474I)

>  <endpoint>
pIC50

>  <value>
8.00

$$$$
>  <compound>
Cc1cnc(NCC(CCO)CNc2ccc(-n3cccc(C)c3=O)cn2)nn1 (racemic)

>  <target.entity>
PCSK9 (Homo sapiens, UniProt Q8NBP7, G670E/V474I)

>  <endpoint>
pIC50

>  <value>
5.89

$$$$
>  <compound>
O=c1ccc(-c2c[nH]nn2)cn1-c1ccc(N[C@H]2CC[C@H](Nc3ncc(C4CC4)nn3)C2)nc1

>  <target.entity>
PCSK9 (Homo sapiens, UniProt Q8NBP7, G670E/V474I)

>  <endpoint>
pIC50

>  <value>
8.85

$$$$
>  <compound>
Cc1cnc(N[C@H]2CC[C@H](Nc3ccc(-n4cc(Cl)ccc4=O)cn3)C2)nn1

>  <target.entity>
PCSK9 (Homo sapiens, UniProt Q8NBP7, G670E/V474I)

>  <endpoint>
pIC50

>  <value>
8.08

$$$$
>  <compound>
O=C(NCC(F)F)c1cnc(N[C@H]2CC[C@H](Nc3ccc(-n4ccccc4=O)cn3)C2)nn1

>  <target.entity>
PCSK9 (Homo sapiens, UniProt Q8NBP7, G670E/V474I)

>  <endpoint>
pIC50

>  <value>
7.34

$$$$

The compound listed as `O=C(NC1COC1)c1cnc(N[C@H]2CC[C@H](Nc3ccc(-n4cccc(Cl)c4=O)cn3)C2)nn1` has a reported pIC50 of 8.68

The compound listed as `Cc1cnc(N[C@H]2CC[C@H](Nc3ccc(-n4c(=O)ccc5cccnc54)cn3)C2)nn1` has a reported pIC50 of 8.60

###

# EC50 annotations
target.entity: PCSK9 (Homo sapiens, UniProt Q8NBP7, G670E/V474I)
experiment.notes: Assay 3 PCSK9 LDL-C uptake assay in HepG2 cells
measurement.conditions: 125 nM PCSK9, pHrodo Red-LDL, read-out: Assay 3 LDL uptake potency
From the text: This assay measures for PCSK9 antagonist activity based on a test compound's capacity to restore LDL-C-uptake in HepG2 cells. The assay is based on exogenous PCSK9 and LDL-C complexed with a pH-sensitive dye. […] Inhibition of PCSK9 reduces LDLR degradation and the increased LDL-C uptake is quantified by fluorescence microscopy. […] • 1. […] Supernatant was discarded and the cell pellet resuspended in cell medium and counted with a Nucleocounter. […]

Known results for molecules:
>  <compound>
O=c1ccccn1-c1ccc(N[C@H]2CC[C@H](Nc3ncc(C4CC4)nn3)C2)nc1

>  <value>
0.3 µM

$$$$
>  <compound>
Cc1cnc(N[C@H]2CC[C@H](Nc3ccc(-n4cc(-c5c[nH]nn5)ccc4=O)cn3)C2)nn1

>  <value>
0.3 µM

$$$$
>  <compound>
Cn1c(=O)n(-c2ccc(N[C@H]3CC[C@H](Nc4ncc(C5CC5)nn4)C3)nc2)c2ncccc21

>  <value>
0.1 µM

$$$$
>  <compound>
Cc1cnc(N[C@H]2CC[C@H](Nc3ccc(-n4ccccc4=O)cn3)C2)nn1

>  <value>
0.6 µM

$$$$
>  <compound>
O=c1ccc(Cl)cn1-c1ccc(N[C@H]2CC[C@H](Nc3ncc(C4CC4)nn3)C2)nc1

>  <value>
0.2 µM

$$$$
>  <compound>
Cc1cnc(N[C@H]2CC[C@H](Nc3ccc(-n4c(=O)n(C)c5cc(C#N)cnc54)cn3)C2)nn1

>  <value>
0.7 µM

$$$$
>  <compound>
N#Cc1ccc(=O)n(-c2ccc(N[C@H]3CC[C@H](Nc4ncc(C5CC5)nn4)C3)nc2)c1

>  <value>
0.3 µM

$$$$

API: the following record is the query input.
The molecule listed as `Cc1ccc(=O)n(-c2ccc(N[C@H]3CC[C@H](Nc4ncc(C)nn4)C3)nc2)c1` has a reported EC50 of 0.2 µM

###

target.entity: PCSK9 (Homo sapiens, UniProt Q8NBP7, G670E/V474I)
experiment.notes: Assay 3 PCSK9 LDL-C uptake assay in HepG2 cells
measurement.conditions: 125 nM PCSK9, pHrodo Red-LDL, read-out: Assay 3 LDL uptake potency
# pEC50 annotations
When answering, recall that pEC50 equals minus log10 of the concentration in mol/L, and write that number alone.

>  <compound>
O=c1c(Cl)cccn1-c1ccc(N[C@H]2CC[C@H](Nc3ncc(C4CC4)nn3)C2)nc1

>  <value>
7.00

$$$$

Fill in: PCSK9 (Homo sapiens, UniProt Q8NBP7, G670E/V474I) pEC50 for `O=C(NC1COC1)c1cnc(N[C@H]2CC[C@H](Nc3ccc(-n4cccc(Cl)c4=O)cn3)C2)nn1` = 7.00

Fill in: PCSK9 (Homo sapiens, UniProt Q8NBP7, G670E/V474I) pEC50 for `COc1ccc(=O)n(-c2ccc(N[C@H]3CC[C@H](Nc4ncc(C(=O)NC5COC5)nn4)C3)nc2)c1` = 6.70

Fill in: PCSK9 (Homo sapiens, UniProt Q8NBP7, G670E/V474I) pEC50 for `COc1cccn(-c2ccc(N[C@H]3CC[C@H](Nc4ncc(C)nn4)C3)nc2)c1=O` = 7.00

Fill in: PCSK9 (Homo sapiens, UniProt Q8NBP7, G670E/V474I) pEC50 for `Cc1cnc(N[C@H]2CC[C@H](Nc3ccc(-n4cc(-c5cnn(C)c5)ccc4=O)cn3)C2)nn1` = 6.70
